test system: cancer cell lines from the cancer cell line encyclopedia (CCLE); experiment: Cell line profiling (CLiP) proliferation experiment; format: cell-based; conditions: COLO 792 cells; read-out: Inflection Point
pEC50: −log10 of the molar value.
PROPERTY MEASURED: pEC50

>  <LINE NOTATION>
CC(C)[C@@]12C[C@@H](O)[C@@](C)(O1)[C@@H]1CC[C@@H](C)[C@H]1[C@@H]2OC(=O)/C=C/c1ccccc1

>  <PROPERTY MEASURED>
pEC50

>  <MEASURED>
4.79

$$$$

---

test system: cancer cell lines from the cancer cell line encyclopedia (CCLE); experiment: Cell line profiling (CLiP) proliferation experiment; type: cell-based; settings: Homo sapiens, COR-L47, COR-L47, lung, small_cell_carcinoma; read-out: Crossing Point
pIC50: −log10 of the molar value.

>  <LINE NOTATION>
CC(C)[C@@]12C[C@@H](O)[C@@](C)(O1)[C@@H]1CC[C@@H](C)[C@H]1[C@@H]2OC(=O)/C=C/c1ccccc1

>  <pIC50>
< 4.52

$$$$

---

system: cancer cell lines from the cancer cell line encyclopedia (CCLE); experiment: Cell line profiling (CLiP) proliferation experiment; type: cell-based; conditions: RKN (soft_tissue); read-out: Crossing Point
pIC50: −log10 of the molar value.

>  <COMPOUND>
CC(C)[C@@]12C[C@@H](O)[C@@](C)(O1)[C@@H]1CC[C@@H](C)[C@H]1[C@@H]2OC(=O)/C=C/c1ccccc1 [Englerin B]

>  <TEST TARGET>
cancer cell lines from the cancer cell line encyclopedia (CCLE)

>  <pIC50>
< 4.52

$$$$

---

tested on: cancer cell lines from the cancer cell line encyclopedia (CCLE); assay: Cell line profiling (CLiP) proliferation experiment; type: cell-based; conditions: Homo sapiens, NCI-H1437, cell line NCI-H1437 (lung); read-out: Crossing Point
pIC50: −log10 of the molar value.
PROPERTY MEASURED: pIC50

>  <LINE NOTATION>
CC(C)[C@@]12C[C@@H](O)[C@@](C)(O1)[C@@H]1CC[C@@H](C)[C@H]1[C@@H]2OC(=O)/C=C/c1ccccc1

>  <TEST TARGET>
cancer cell lines from the cancer cell line encyclopedia (CCLE)

>  <MEASURED>
< 4.52

$$$$

---

tested on: cancer cell lines from the cancer cell line encyclopedia (CCLE); assay: Cell line profiling (CLiP) proliferation experiment; format: cell-based; settings: Homo sapiens, JVM-2, JVM-2 cells; read-out: Inflection Point
pEC50: −log10 of the molar value.

>  <COMPOUND>
CC(C)[C@@]12C[C@@H](O)[C@@](C)(O1)[C@@H]1CC[C@@H](C)[C@H]1[C@@H]2OC(=O)/C=C/c1ccccc1 [Englerin B]

>  <TEST TARGET>
cancer cell lines from the cancer cell line encyclopedia (CCLE)

>  <pEC50>
4.68

$$$$

---

system: cancer cell lines from the cancer cell line encyclopedia (CCLE); test: Cell line profiling (CLiP) proliferation experiment; assay type: cell-based; settings: NCI-H196, NCI-H196, lung, small_cell_carcinoma; read-out: Crossing Point
pIC50: −log10 of the molar value.
PROPERTY MEASURED: pIC50

>  <MOLECULE>
CC(C)[C@@]12C[C@@H](O)[C@@](C)(O1)[C@@H]1CC[C@@H](C)[C@H]1[C@@H]2OC(=O)/C=C/c1ccccc1 [Englerin B]

>  <PROPERTY MEASURED>
pIC50

>  <MEASURED>
< 4.52

$$$$
